# ASSAY DETAILS: Half life in Sprague-Dawley rat at 1 mg/kg, iv
# Type: ADME, organism-based
# Design: dose 1 mg/kg, route intravenous
# RUN CONDITIONS: in vivo
REPORTED ENDPOINT: half-life
Please give the number followed by its unit.

Query: Indicate the recorded half-life value for this molecule: CCOC[C@@H](CC(C)C)NC(=O)[C@@H]1CNC[C@H](N2CC(=O)N(c3ccccc3Cl)CC2(C)C)C1.O=C(O)/C=C/C(=O)O
Result: 3.2 h

* * *

# ASSAY DETAILS: Volume of distribution at steady state in Sprague-Dawley rat at 1 mg/kg, iv
# Assay type: ADME, organism-based
# Set-up: dose 1 mg/kg, route intravenous
# RUN CONDITIONS: in vivo, read-out: Vdss
REPORTED ENDPOINT: Vd
Quote the value and follow it with the unit of measurement.

Query: Determine its reported Vd: CCOC[C@@H](CC(C)C)NC(=O)[C@@H]1CNC[C@H](N2CC(=O)N(c3ccccc3Cl)CC2(C)C)C1.O=C(O)/C=C/C(=O)O
Result: 5.8 L/kg

* * *

# ASSAY DETAILS: Cmax in Sprague-Dawley rat at 10 mg/kg, po
# Assay type: ADME, organism-based
# Design: dose 10 mg/kg, route oral
# RUN CONDITIONS: in vivo
REPORTED ENDPOINT: Cmax (ng/mL)
Give your result in ng/mL as a bare value.

Query: Give the reported value of Cmax for this record: CCOC[C@@H](CC(C)C)NC(=O)[C@@H]1CNC[C@H](N2CC(=O)N(c3ccccc3Cl)CC2(C)C)C1.O=C(O)/C=C/C(=O)O
Result: 540

* * *

# ASSAY DETAILS: Oral bioavailability in Sprague-Dawley rat at 10 mg/kg
# Format: ADME, organism-based
# RUN CONDITIONS: in vivo
REPORTED ENDPOINT: bioavailability (%)
Quick note: give the figure in %, leave out the unit.

Query: For the compound CCOC[C@@H](CC(C)C)NC(=O)[C@@H]1CNC[C@H](N2CC(=O)N(c3ccccc3Cl)CC2(C)C)C1.O=C(O)/C=C/C(=O)O , give its reported bioavailability.
Result: 45

* * *

# TARGET ENTITY: Renin (Homo sapiens)
# Sequence (P00797 whole entry): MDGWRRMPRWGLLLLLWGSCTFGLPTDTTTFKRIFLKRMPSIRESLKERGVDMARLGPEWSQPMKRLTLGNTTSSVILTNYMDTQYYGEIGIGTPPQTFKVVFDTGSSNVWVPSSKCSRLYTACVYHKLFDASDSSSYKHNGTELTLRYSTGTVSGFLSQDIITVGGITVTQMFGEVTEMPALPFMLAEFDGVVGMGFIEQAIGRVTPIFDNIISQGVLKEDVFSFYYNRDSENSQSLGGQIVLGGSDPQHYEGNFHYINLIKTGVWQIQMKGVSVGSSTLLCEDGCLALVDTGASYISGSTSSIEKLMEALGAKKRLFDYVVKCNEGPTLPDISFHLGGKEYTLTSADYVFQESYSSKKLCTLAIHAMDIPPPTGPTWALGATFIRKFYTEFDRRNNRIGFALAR
# ASSAY DETAILS: Inhibition of recombinant human renin using Arg-Glu(EDANS)-Ile-His-Pro-Phe-His-Leu-Val-Ile-His-Thr-Lys(DABCYL)-Arg as substrate incubated for 10 mins prior to substrate addition measured after 90 mins by fluorimetric analysis
REPORTED ENDPOINT: pIC50
Reminder that pIC50 is minus the log10 of a molar concentration.

>  <MOLECULE>
CC(C)C[C@@H](NC(=O)[C@@H]1CNC[C@H](N2CC(=O)N(c3ccccc3Cl)CC2(C)C)C1)C(=O)N(C)C

>  <pIC50>
8.08

$$$$

Query: Enter pIC50 (test system Renin (Homo sapiens)) for CC(C)C[C@@H](NC(=O)[C@@H]1CNC[C@H](N2CC(=O)N(c3ccccc3Cl)CC2(C)C)C1)c1cccnc1
Result: 8.68

Query: Param request: pIC50 | system Renin (Homo sapiens) | item CC[C@@H](NC(=O)[C@@H]1CNC[C@H](N2CC(=O)N(c3ccccc3Cl)CC2(C)C)C1)c1ccccc1
Result: 8.68
